system: Enterococcus faecium; experiment: Antibacterial activity against vancomycin-resistant Enterococcus faecium 05-8 by agar dilution method; format: functional
metric: MIC (µg/mL)
Answer with a number only, understood to be in µg/mL.

Solved cases below.
N=C(NC1CC1)c1ccc2cc(-c3ccc(Oc4ccc(-c5cc6ccc(C(=N)NC7CC7)cc6[nH]5)cc4)cc3)[nH]c2c1: 4
CCC(CC)NC(=N)c1ccc2cc(-c3ccc(Oc4ccc(-c5cc6ccc(C(=N)NC(CC)CC)cc6[nH]5)cc4)cc3)[nH]c2c1: 4
N=C(c1ccc2cc(-c3ccc(Oc4ccc(-c5cc6ccc(C(=N)N7CCC(N8CCCC8)CC7)cc6[nH]5)cc4)cc3)[nH]c2c1)N1CCC(N2CCCC2)CC1: 8
N=C(c1ccc2cc(-c3ccc(Oc4ccc(-c5cc6ccc(C(=N)N7CCOCC7)cc6[nH]5)cc4)cc3)[nH]c2c1)N1CCOCC1: 8

So for N=C(c1ccc2cc(-c3ccc(Oc4ccc(-c5cc6ccc(C(=N)N7CCCC7)cc6[nH]5)cc4)cc3)[nH]c2c1)N1CCCC1 , the logged MIC turned out to be 8

So for CCC(C)NC(=N)c1ccc2cc(-c3ccc(Oc4ccc(-c5cc6ccc(C(=N)NC(C)CC)cc6[nH]5)cc4)cc3)[nH]c2c1 (stereo not given) , the logged MIC turned out to be 2

So for CC(C)NC(=N)c1ccc2cc(-c3ccc(Oc4ccc(-c5cc6ccc(C(=N)NC(C)C)cc6[nH]5)cc4)cc3)[nH]c2c1 , the logged MIC turned out to be 1

So for CCNC(=N)c1ccc2cc(-c3ccc(Oc4ccc(-c5cc6ccc(C(=N)NCC)cc6[nH]5)cc4)cc3)[nH]c2c1 , the logged MIC turned out to be 4

So for CCCNC(=N)c1ccc2cc(-c3ccc(Oc4ccc(-c5cc6ccc(C(=N)NCCC)cc6[nH]5)cc4)cc3)[nH]c2c1 , the logged MIC turned out to be 16

So for N=C(c1ccc2cc(-c3ccc(Oc4ccc(-c5cc6ccc(C(=N)N7CCCCC7)cc6[nH]5)cc4)cc3)[nH]c2c1)N1CCCCC1 , the logged MIC turned out to be 32

So for CNC(=N)c1ccc2cc(-c3ccc(Oc4ccc(-c5cc6ccc(C(=N)NC)cc6[nH]5)cc4)cc3)[nH]c2c1 , the logged MIC turned out to be 2

So for C[C@H]1COc2c(N3CCN(C)CC3)c(F)cc3c(=O)c(C(=O)O)cn1c23.C[C@H]1COc2c(N3CCN(C)CC3)c(F)cc3c(=O)c(C(=O)O)cn1c23.O , the logged MIC turned out to be 64

====

system: Escherichia coli; assay: Antibacterial activity against extended-spectrum beta-lactamase-negative Escherichia coli ATCC 25922 by agar dilution method; type: functional
metric: MIC (µg/mL)
Answer with a number only, understood to be in µg/mL.

CCC(CC)NC(=N)c1ccc2cc(-c3ccc(Oc4ccc(-c5cc6ccc(C(=N)NC(CC)CC)cc6[nH]5)cc4)cc3)[nH]c2c1: 16

So for CCNC(=N)c1ccc2cc(-c3ccc(Oc4ccc(-c5cc6ccc(C(=N)NCC)cc6[nH]5)cc4)cc3)[nH]c2c1 , the logged MIC turned out to be 64

====

system: Enterococcus faecium; assay: Antibacterial activity against vancomycin-sensitive Enterococcus faecium 09-10 by agar dilution method; type: functional
Collected MIC values appear next to each entry.
Answer with a number only, understood to be in µg/mL.

Solved cases below.
c1cc(-c2cc3ccc(C4=NCCCN4)cc3[nH]2)ccc1Oc1ccc(-c2cc3ccc(C4=NCCCN4)cc3[nH]2)cc1: 16
CC1CCN(C(=N)c2ccc3cc(-c4ccc(Oc5ccc(-c6cc7ccc(C(=N)N8CCC(C)CC8)cc7[nH]6)cc5)cc4)[nH]c3c2)CC1: 128
CN(C)C(=N)c1ccc2cc(-c3ccc(Oc4ccc(-c5cc6ccc(C(=N)N(C)C)cc6[nH]5)cc4)cc3)[nH]c2c1: 2
CC(C)NC(=N)c1ccc2cc(-c3ccc(Oc4ccc(-c5cc6ccc(C(=N)NC(C)C)cc6[nH]5)cc4)cc3)[nH]c2c1: 2
c1cc(-c2cc3ccc(C4=NCCN4)cc3[nH]2)ccc1Oc1ccc(-c2cc3ccc(C4=NCCN4)cc3[nH]2)cc1: 8

So for N=C(c1ccc2cc(-c3ccc(Oc4ccc(-c5cc6ccc(C(=N)N7CCCC7)cc6[nH]5)cc4)cc3)[nH]c2c1)N1CCCC1 , the logged MIC turned out to be 8

So for N=C(c1ccc2cc(-c3ccc(Oc4ccc(-c5cc6ccc(C(=N)N7CCC7)cc6[nH]5)cc4)cc3)[nH]c2c1)N1CCC1 , the logged MIC turned out to be 8
